- ASSAY PROTOCOL: Fraction unbound in rat plasma
- Assay type: ADME, cell-free
OUTCOME MEASURE: fraction unbound

{"columns": ["CHEMICAL STRUCTURE", "OUTCOME MEASURE", "RECORDED MEASUREMENT"],
 "data": [
  ["N#CC1(c2ccccn2)CCN(Cc2cc(C(=O)NC3CCOCC3)c(=O)n3ccccc23)CC1", "fraction unbound", 0.27]
]}

---

Some molecules, each annotated with its measured Ratio.
- Test system: Rattus norvegicus
- ASSAY PROTOCOL: Ratio of drug level in CSF to unbound drug level in plasma of Sprague-Dawley rat at 10 mg/kg, po after 2 hrs
- ASSAY CONDITIONS: in vivo

{"columns": ["CHEMICAL STRUCTURE", "Ratio"],
 "data": [
  ["N#CC1(c2ccccn2)CCN(Cc2cc(C(=O)O)c(=O)n3ccccc23)CC1", 0.3],
  ["N#CC1(c2ccccn2)CCN(Cc2cc(C(=O)NC3CCOCC3)c(=O)n3ccccc23)CC1", 0.3],
  ["N#CC1(c2ccccc2)CCN(Cc2cc(C(=O)N[C@H]3CCCC[C@@H]3O)c(=O)n3ccccc23)CC1", 0.58],
  ["N#CC1(c2ccccn2)CCN(Cc2cc(C(=O)N[C@H]3CCCC[C@@H]3F)c(=O)n3ccccc23)CC1", 0.33]
]}

---

- System: Plasma
- ASSAY PROTOCOL: Plasma concentration in mouse scopolamine-induced memory deficit model at 10 mg/kg, ip
- Assay type: ADME, organism-based
- Parameters: dose 10 mg/kg, route intraperitoneal
- ASSAY CONDITIONS: in vivo

{"columns": ["CHEMICAL STRUCTURE", "UNIT ABBREV", "concentration"],
 "data": [
  ["N#CC1(c2ccccn2)CCN(Cc2cc(C(=O)NC3CCOCC3)c(=O)n3ccccc23)CC1", "nM", 2400]
]}

---

- ASSAY PROTOCOL: Ratio of drug level in brain to plasma of Sprague-Dawley rat at 10 mg/kg, po after 2 hrs
- Type: ADME, organism-based
- Parameters: dose 10 mg/kg, route oral
- ASSAY CONDITIONS: read-out: BPR
Reported Kp at 2 h values are given for each entry in this list.

{"columns": ["CHEMICAL STRUCTURE", "Kp at 2 h"],
 "data": [
  ["O=C(N[C@H]1CCCC[C@@H]1O)c1cc(CN2CCN(c3cc4scnc4cn3)CC2)c2ccccn2c1=O", 0.19],
  ["N#CC1(c2ccccn2)CCN(Cc2cc(C(=O)NC3CCOCC3)c(=O)n3ccccc23)CC1", 0.21],
  ["N#CC1(c2ccccc2)CCN(Cc2cc(C(=O)N[C@H]3CCCC[C@@H]3O)c(=O)n3ccccc23)CC1", 0.52],
  ["N#CC1(c2ccccn2)CCN(Cc2cc(C(=O)N[C@H]3CCCC[C@@H]3F)c(=O)n3ccccc23)CC1", 0.28]
]}

---

Reported concentration at 2 h values for the following molecules.
- ASSAY PROTOCOL: Plasma concentration in Sprague-Dawley rat at 10 mg/kg, po after 2 hrs
- Assay type: ADME, organism-based
- Set-up: dose 10 mg/kg, route oral

{"columns": ["CHEMICAL STRUCTURE", "concentration at 2 h (nM)"],
 "data": [
  ["N#CC1(c2ccccn2)CCN(Cc2cc(C(=O)N[C@H]3CCCC[C@@H]3F)c(=O)n3ccccc23)CC1", 1120],
  ["O=C(N[C@H]1CCCC[C@@H]1O)c1cc(CN2CCN(c3cc4scnc4cn3)CC2)c2ccccn2c1=O", 375],
  ["N#CC1(c2ccccc2)CCN(Cc2cc(C(=O)N[C@H]3CCCC[C@@H]3O)c(=O)n3ccccc23)CC1", 1610],
  ["N#CC1(c2ccccn2)CCN(Cc2cc(C(=O)O)c(=O)n3ccccc23)CC1", 1480],
  ["N#CC1(c2ccccn2)CCN(Cc2cc(C(=O)NC3CCOCC3)c(=O)n3ccccc23)CC1", 2650]
]}

---

- ASSAY PROTOCOL: Protein binding in human plasma
- Format: ADME, cell-free
- ASSAY CONDITIONS: read-out: PPB (converted)

{"columns": ["COMPOUND", "fraction unbound"],
 "data": [
  ["N#CC1(c2ccccn2)CCN(Cc2cc(C(=O)O)c(=O)n3ccccc23)CC1 [MSD-M1PAM]", 0.291],
  ["O=C(N[C@H]1CCCC[C@@H]1O)c1cc(CN2CCN(c3cc4ccccc4cn3)CC2)c2ccccn2c1=O", 0.087],
  ["Cc1ccc(N2CCN(Cc3cc(C(=O)N[C@H]4CCCC[C@@H]4O)c(=O)n4ccccc34)CC2)nc1", 0.399]
]}

---

Documented efflux ratio across a set of compounds
- SYSTEM TESTED: MDR1 (P-gp, ABCB1) (Homo sapiens)
- Sequence (P08183 whole entry): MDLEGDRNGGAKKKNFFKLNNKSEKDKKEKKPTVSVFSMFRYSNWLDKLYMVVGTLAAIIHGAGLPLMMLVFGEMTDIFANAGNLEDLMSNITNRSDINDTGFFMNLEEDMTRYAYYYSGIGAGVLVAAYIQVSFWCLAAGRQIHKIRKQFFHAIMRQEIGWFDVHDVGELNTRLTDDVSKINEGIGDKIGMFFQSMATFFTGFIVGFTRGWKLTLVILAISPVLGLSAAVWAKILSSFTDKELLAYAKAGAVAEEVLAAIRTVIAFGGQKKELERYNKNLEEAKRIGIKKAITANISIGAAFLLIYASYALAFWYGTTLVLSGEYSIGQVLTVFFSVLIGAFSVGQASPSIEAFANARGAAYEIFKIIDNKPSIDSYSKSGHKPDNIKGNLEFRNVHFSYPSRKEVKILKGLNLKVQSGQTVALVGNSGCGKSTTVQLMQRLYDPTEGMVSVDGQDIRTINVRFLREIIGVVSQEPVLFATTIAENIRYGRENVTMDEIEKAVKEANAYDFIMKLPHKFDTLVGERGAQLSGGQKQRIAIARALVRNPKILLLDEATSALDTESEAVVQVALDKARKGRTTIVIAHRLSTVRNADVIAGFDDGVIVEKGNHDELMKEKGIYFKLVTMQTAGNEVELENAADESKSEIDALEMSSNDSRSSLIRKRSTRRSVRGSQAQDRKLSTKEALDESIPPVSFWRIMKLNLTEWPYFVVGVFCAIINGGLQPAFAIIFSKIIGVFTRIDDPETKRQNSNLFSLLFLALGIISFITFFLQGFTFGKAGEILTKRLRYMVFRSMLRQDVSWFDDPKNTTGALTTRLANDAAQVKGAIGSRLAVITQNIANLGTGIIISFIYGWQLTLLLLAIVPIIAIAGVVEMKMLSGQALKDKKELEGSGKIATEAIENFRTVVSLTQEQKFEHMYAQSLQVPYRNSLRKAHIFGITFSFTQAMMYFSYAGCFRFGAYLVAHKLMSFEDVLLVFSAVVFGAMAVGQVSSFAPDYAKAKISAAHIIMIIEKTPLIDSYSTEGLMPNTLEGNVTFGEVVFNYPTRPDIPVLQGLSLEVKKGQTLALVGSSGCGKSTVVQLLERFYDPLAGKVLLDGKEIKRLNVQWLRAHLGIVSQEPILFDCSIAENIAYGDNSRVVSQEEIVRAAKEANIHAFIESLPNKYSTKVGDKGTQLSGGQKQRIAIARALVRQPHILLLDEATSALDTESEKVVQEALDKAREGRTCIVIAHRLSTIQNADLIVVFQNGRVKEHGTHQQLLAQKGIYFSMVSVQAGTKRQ
- ASSAY PROTOCOL: in vitro
- ASSAY CONDITIONS: not told
- Description: Efflux ratio assessed as human MDR1-mediated directional transport ratio from basolateral to apical over apical to basolateral by cell based assay
OUTCOME MEASURE: efflux ratio

{"columns": ["COMPOUND", "RECORDED MEASUREMENT"],
 "data": [
  ["N#CC1(c2ccccn2)CCN(Cc2cc(C(=O)NC3CCCCC3)c(=O)n3ccccc23)CC1", 1.6],
  ["N#CC1(c2ccccn2)CCN(Cc2cc(C(=O)NC3CCCCC3(F)F)c(=O)n3ccccc23)CC1 (stereo not drawn)", 1.7],
  ["N#CC1(c2ccccn2)CCN(Cc2cc(C(=O)NC3CCOCC3)c(=O)n3ccccc23)CC1", 2.4],
  ["N#CC1(c2ccccc2)CCN(Cc2cc(C(=O)N[C@H]3CCCC[C@@H]3O)c(=O)n3ccccc23)CC1", 2.3],
  ["N#CC1(c2ccccn2)CCN(Cc2cc(C(=O)O)c(=O)n3ccccc23)CC1 [MSD-M1PAM]", 0.5],
  ["N#CC1(c2ccccn2)CCN(Cc2cc(C(=O)N[C@H]3CCCC[C@@H]3F)c(=O)n3ccccc23)CC1", 1.9],
  ["C[C@@]1(NC(=O)c2cc(CN3CCC(C#N)(c4ccccn4)CC3)c3ccccn3c2=O)CCCC[C@H]1O", 10],
  ["N#Cc1ccc(N2CCN(Cc3cc(C(=O)N[C@H]4CCCC[C@@H]4O)c(=O)n4ccccc34)CC2)cc1", 1.1]
]}

---

Measured fraction unbound accompanies every entry in the list below.
- ASSAY PROTOCOL: Protein binding in human plasma
- Format: ADME, cell-free
- ASSAY CONDITIONS: read-out: PPB (converted)
OUTCOME MEASURE: fraction unbound

{"columns": ["COMPOUND", "OUTCOME MEASURE", "RECORDED MEASUREMENT"],
 "data": [
  ["N#CC1(c2ccccn2)CCN(Cc2cc(C(=O)N[C@H]3CCCC[C@@H]3O)c(=O)n3ccccc23)CC1", "fraction unbound", 0.48],
  ["N#CC1(c2ccccn2)CCN(Cc2cc(C(=O)NC3CCCCC3(F)F)c(=O)n3ccccc23)CC1 (stereo not drawn)", "fraction unbound", 0.105],
  ["N#CC1(c2ccccc2)CCN(Cc2cc(C(=O)N[C@H]3CCCC[C@@H]3O)c(=O)n3ccccc23)CC1", "fraction unbound", 0.148],
  ["O=C(N[C@H]1CCCC[C@@H]1O)c1cc(CN2CCN(c3cc4scnc4cn3)CC2)c2ccccn2c1=O", "fraction unbound", 0.082],
  ["N#CC1(c2ccccn2)CCN(Cc2cc(C(=O)N[C@H]3CCCC[C@@H]3F)c(=O)n3ccccc23)CC1", "fraction unbound", 0.185],
  ["N#CC1(c2ccccn2)CCN(Cc2cc(C(=O)NC3CCCCC3)c(=O)n3ccccc23)CC1", "fraction unbound", 0.066],
  ["N#Cc1ccc(N2CCN(Cc3cc(C(=O)N[C@H]4CCCC[C@@H]4O)c(=O)n4ccccc34)CC2)cc1", "fraction unbound", 0.095],
  ["N#CC1(c2ccccn2)CCN(Cc2cc(C(=O)NC3CCOCC3)c(=O)n3ccccc23)CC1", "fraction unbound", 0.49]
]}

---

As shown below, each of these compounds has a reported IP value.
- SYSTEM TESTED: Muscarinic acetylcholine receptor M1 (Homo sapiens) (UniProt P11229)
- Sequence (P11229 whole entry): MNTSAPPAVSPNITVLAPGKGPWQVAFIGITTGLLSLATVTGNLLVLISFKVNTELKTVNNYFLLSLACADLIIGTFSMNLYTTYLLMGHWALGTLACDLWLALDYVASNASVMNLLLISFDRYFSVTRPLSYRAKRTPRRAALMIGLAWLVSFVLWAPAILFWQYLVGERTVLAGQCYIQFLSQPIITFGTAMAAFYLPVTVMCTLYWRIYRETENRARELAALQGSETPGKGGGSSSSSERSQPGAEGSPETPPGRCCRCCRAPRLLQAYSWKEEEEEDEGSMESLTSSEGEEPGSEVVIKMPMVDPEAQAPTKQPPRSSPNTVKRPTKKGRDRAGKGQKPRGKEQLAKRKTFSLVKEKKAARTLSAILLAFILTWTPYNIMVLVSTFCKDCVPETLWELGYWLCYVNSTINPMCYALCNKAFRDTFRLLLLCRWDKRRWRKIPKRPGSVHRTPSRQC
- ASSAY PROTOCOL: Positive allosteric modulation of human muscarinic M1 receptor expressing in CHONFAT cells assessed as potentiation of acetylcholine-induced calcium mobilization preincubated for 4 mins and measured 4 mins after acetylcholine stimulation by FLIPR assay
- Type: functional, cell-based

{"columns": ["CHEMICAL STRUCTURE", "IP"],
 "data": [
  ["C[C@@]1(O)CCCC[C@H]1NC(=O)c1cc(CN2CCC(C#N)(c3ccccn3)CC2)c2ccccn2c1=O", "0.093 µM"],
  ["N#CC1(c2ccccn2)CCN(Cc2cc(C(=O)N3CCCC3)c(=O)n3ccccc23)CC1", "23 µM"],
  ["COc1ccc(Cn2cc(C(=O)NC3CCCCC3)c(=O)c3ccccc32)cc1", "14 µM"],
  ["N#CC1(c2ccccc2)CCN(Cc2cc(C(=O)N[C@H]3CCCC[C@@H]3O)c(=O)n3ccccc23)CC1", "0.045 µM"]
]}
